B1: VPS39 (parent)
chain: LRLENNHCHIEESEHVLKKAHKYS

variants of: B1; assay: protein stability index of a GFP-peptide fusion (GPS, HEK-293T) (PSI 1-6); higher = more stable; conditions: c terminus: a fixed tail appended;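 also: lentivirally expressed fusions sorted by FACS into six bins by GFP to DsRed ratio, PSI derived from sequencing read proportions per bin multiplied by bin number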

- Variant Name: "I10Q"
  protein stability index: 3
- Variant Name: "L3V"
  protein stability index: 2.38
- Variant Name: "Y23N"
  protein stability index: 3.05
- Variant Name: "N5R"
  protein stability index: 2.77
- Variant Name: "H9P"
  protein stability index: 1.8
- Variant Name: "S13Y"
  protein stability index: 2.75
- Variant Name: "E4C"
  protein stability index: 2.44
- Variant Name: "N6A"
  protein stability index: 2.72
- Variant Name: "S24L"
  protein stability index: 2.08
- Variant Name: "E12V"
  protein stability index: 1.35
- Variant Name: "V16A"
  protein stability index: 3.01
- Variant Name: "L1V"
  protein stability index: 2.29
- Variant Name: "E12S"
  protein stability index: 2.61
- Variant Name: "I10T"
  protein stability index: 3.02
- Variant Name: "I10H"
  protein stability index: 3.17
- Variant Name: "L3F"
  protein stability index: 2.09
- Variant Name: "L17N"
  protein stability index: 2.48
- Variant Name: "L17C"
  protein stability index: 2.65
- Variant Name: "K18G"
  protein stability index: 2.08
- Variant Name: "C8Q"
  protein stability index: 2.27
- Variant Name: "S13F"
  protein stability index: 1.73
- Variant Name: "E4I"
  protein stability index: 2.17
- Variant Name: "E11A"
  protein stability index: 3.06
- Variant Name: "E11C"
  protein stability index: 1.99
- Variant Name: "L1H"
  protein stability index: 4.02
- Variant Name: "L3S"
  protein stability index: 3.33
- Variant Name: "H21F"
  protein stability index: 2.52
- Variant Name: "L17V"
  protein stability index: 2.4
- Variant Name: "A20G"
  protein stability index: 2.73
- Variant Name: "E4G"
  protein stability index: 2.41
- Variant Name: "N6P"
  protein stability index: 2.12
- Variant Name: "S24Q"
  protein stability index: 1.92
- Variant Name: "K19F"
  protein stability index: 1.98
- Variant Name: "A20E"
  protein stability index: 3.06
- Variant Name: "H21L"
  protein stability index: 1.9
- Variant Name: "A20W"
  protein stability index: 2.25
- Variant Name: "V16W"
  protein stability index: 1.49
- Variant Name: "S13H"
  protein stability index: 2.18
- Variant Name: "E12N"
  protein stability index: 2.44
- Variant Name: "L17W"
  protein stability index: 1.72
- Variant Name: "H21E"
  protein stability index: 2.78
- Variant Name: "A20C"
  protein stability index: 2.04
- Variant Name: "C8F"
  protein stability index: 2.29
- Variant Name: "N5E"
  protein stability index: 2.46
- Variant Name: "K19Q"
  protein stability index: 2.51
- Variant Name: "K19V"
  protein stability index: 2.4
- Variant Name: "E11S"
  protein stability index: 3.04
- Variant Name: "K22N"
  protein stability index: 2.44
- Variant Name: "I10D"
  protein stability index: 3.53
- Variant Name: "K18E"
  protein stability index: 1.94
- Variant Name: "K19S"
  protein stability index: 2.1
- Variant Name: "C8L"
  protein stability index: 2.47
- Variant Name: "K19Y"
  protein stability index: 2.67
- Variant Name: "H7A"
  protein stability index: 2.79
- Variant Name: "C8A"
  protein stability index: 3.17
- Variant Name: "E11F"
  protein stability index: 1.75
- Variant Name: "K19A"
  protein stability index: 2.3
- Variant Name: "K18S"
  protein stability index: 1.91
- Variant Name: "K18R"
  protein stability index: 2.21
- Variant Name: "E4K"
  protein stability index: 3.45
- Variant Name: "H9Y"
  protein stability index: 1.92
- Variant Name: "L3G"
  protein stability index: 4.43
- Variant Name: "I10F"
  protein stability index: 2.11
- Variant Name: "V16G"
  protein stability index: 2.62
- Variant Name: "I10V"
  protein stability index: 2.68
- Variant Name: "S24E"
  protein stability index: 3.82
- Variant Name: "Y23A"
  protein stability index: 2.76
- Variant Name: "K22Y"
  protein stability index: 2.55
- Variant Name: "S24W"
  protein stability index: 2.24
- Variant Name: "H15R"
  protein stability index: 2.86
- Variant Name: "H9S"
  protein stability index: 3.23
- Variant Name: "H9I"
  protein stability index: 2.19
